Biological target: T1, human GLP-1 receptor (human, UniProt P43220 24-463)
T1 construct: whole, on cells; Used as purified plasma membranes of the stably transfected BHK cell line, not as intact cells; also called hGLP-1
Experiment: SPA, displacement of 125I-GLP-1(7-36)NH2 from hGLP-1R BHK membranes, high HSA (2.0%)
Experimental: A shift in the binding affinity, $IC50$, is an indication that the peptide in question binds to albumin, and thereby a prediction of a potential protracted pharmacokinetic profile of the peptide in question in animal models. 50 ul (micro liter) HSA ("high albumin" experiment containing 2% HSA), or buffer ("low albumin" experiment containing 0.001% HSA), was added to Optiplate, and 25 ul of test compounds were added. […] The plates were centrifuged (1500 rpm, 10 min) and counted in Topcounter.
pIC50: −log10 of the molar value. Numbered stars: 1 amine (or outer) side, 2 acyl side, 3 side chain; on linkers, the order of the positions; unused ones are H or OH. Square brackets hold non-standard residues; d marks the D form. Side chains are listed from the residue outwards. Ends that are not written are not given here. * marks the point of attachment. Decanoyl(10-(4-HOOC-PhO)) = O=C(O)c1ccc(OCCCCCCCCCC(=O)*)cc1; d(γGlu) = O=C(O)[C@@H](CCC(=O)[*:2])N[*:1]; γGlu = O=C(O)[C@H](CCC(=O)[*:2])N[*:1]; C14 diacid = O=C(O)CCCCCCCCCCCCC(=O)*; AEEA = NCCOCCOCC(=O)O; Aib = CC(C)(N)C(=O)O
Would you mind labelling by pIC50? At or over 7 is Yes, under is No.

Solved cases below.
binder: HAEGTFTSDVSSYLEEQAVRK([AEEA-AEEA-γGlu-Decanoyl(10-(4-HOOC-PhO))])FIAWLVRGRK([AEEA-AEEA-γGlu-Decanoyl(10-(4-HOOC-PhO))])
discreteLabel: Yes
--
binder: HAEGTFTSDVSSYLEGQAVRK([γGlu-AEEA-AEEA-d(γGlu)-Decanoyl(10-(4-HOOC-PhO))])FIAWLVQGK([γGlu-AEEA-AEEA-d(γGlu)-Decanoyl(10-(4-HOOC-PhO))])G (also called 26)
discreteLabel: Yes
--
binder: HAEGTFTSDVSSYLEGQAAHK([AEEA-AEEA-γGlu-Decanoyl(10-(4-HOOC-PhO))])FIEWLVRGK([AEEA-AEEA-γGlu-Decanoyl(10-(4-HOOC-PhO))])GE (also called 10)
discreteLabel: No
--
binder: HAEGTFTSDVSSYLEK([γGlu-AEEA-AEEA-C14 diacid])QAARK([γGlu-AEEA-AEEA-C14 diacid])FIAHLVG (also called 14)
discreteLabel: No

// inclusive: pIC50 at least 7? input: H[Aib]EGTFTSDVSSYLEGQAVRK([AEEA-AEEA-γGlu-C14 diacid])FIAHLVQGRK([AEEA-AEEA-γGlu-C14 diacid]) (also called 15)
Yes

// inclusive: pIC50 at least 7? input: HAEGTFTSDVSSYLEK([γGlu-AEEA-AEEA-C14 diacid])QAVRK([γGlu-AEEA-AEEA-C14 diacid])FIEWLVQGRG (also called 20)
No
